- Test system: HOP-62
- assay_details: NCI tumour cell line growth inhibition, 48 h
The source made the active and inactive calls. No stated cut-off is given here; in the data, active = GI50 up to about 1.1 µM and inactive = higher.
property: GI50

> print(dat)
                                   molecule        value.observed
1  COc1cc(C2SC(=N)Nc3c2c(C)nn3C(=O)c2ccc(Cl)cc2)ccc1O (stereo not given)    > 10 µM (inactive)
2  C[n+]1c(-c2ccc(/C=N/N=C/c3ccc(-c4cn5ccccc5[n+]4C)cc3)cc2)cn2ccccc21   > 100 µM (inactive)
3  CCOP(=O)(OCC)/C(=C\n1c(=S)[nH]c2cc(C)ccc21)C(=O)OC   > 100 µM (inactive)
4  C=C1C(=O)OC2/C=C(\CO)CC/C=C(\CO)CC(OC(=O)C(C)C)C12 (stereo not given)    19.2 µM (inactive)
5  CC(C)NC(=O)OCc1c(CO)c2c(n1C)-c1ccccc1CC2  > 58.3 µM (inactive)

====

- System: SNB-19
- assay_details: NCI tumour cell line growth inhibition, 48 h
Activity calls are given as the source filed them. Cut-off read from the data, not from the text of the source: active = GI50 up to about 1.1 µM and inactive = higher.
Outcome codes: label 1 = active, label 0 = inactive

compound	system_under_test	class
O=C(CCC(=O)CC(O)(C(F)(F)F)C(F)(F)F)CC(O)(C(F)(F)F)C(F)(F)F	SNB-19	label 0
Cc1ccc(S(=O)(=O)NC(=N)N(C)N=O)cc1	SNB-19	label 0
O=[N+]([O-])c1cc(C(F)(F)F)cc2n[se]nc12	SNB-19	label 0
CC(/C=N\NC(=S)N(C)C)=N/NC(=S)N(C)C	SNB-19	label 1
O=C1C(CN2CCOCC2)CCCC1CN1CCOCC1 (stereo not drawn)	SNB-19	label 0
O=C(CC1(O)C(=O)Nc2ccccc21)c1ccncc1 (stereo not drawn)	SNB-19	label 0
CC(C)c1cc(Cl)nc(Cl)n1	SNB-19	label 0
CC1(C)C(=NNC(=O)C[N+](C)(C)C)C(C)(C)C1=NNC(=O)C[N+](C)(C)C	SNB-19	label 0
c1ccc2cc(OCC3CO3)c(OCC3CO3)cc2c1 (stereo not drawn)	SNB-19	label 0
O=c1oc2nc(-c3ccccc3)cc(C(F)(F)F)c2n1Cc1ccccc1	SNB-19	label 0
CN1CCN(C2CC(=O)c3c(Cl)sc(Cl)c32)CC1 (stereo not drawn)	SNB-19	label 0
COC(=O)C1=C(C[S+]([O-])c2ccc([N+](=O)[O-])cc2[N+](=O)[O-])C2C=CC1C2 (stereo not drawn)	SNB-19	label 0
CCOC(=O)c1ccc(C)c(/N=N/N(C)C)c1	SNB-19	label 0
C/C(=N\NC(=S)N(C)C)c1ccccn1	SNB-19	label 0
N/N=C(\c1nc2ccc([N+](=O)[O-])cc2nc1O)C(O)c1ccc(Cl)c(Cl)c1 (stereo not drawn)	SNB-19	label 0
CC(=O)OC(C[C@H](C)[C@@H]1CC[C@]2(C)C3=CCC4C(C)(C)C(=O)CC[C@]4(C)C3CCC12C)C1OC1(C)C (stereo partly drawn)	SNB-19	label 0
C/C(=N\Nc1nc2ccccc2s1)c1ccc2ccccc2n1	SNB-19	label 0
COc1ccc(C2=NC(CO)[C@H](c3ccccc3)O2)cc1OC (stereo partly drawn)	SNB-19	label 0
O=C1CC(O)C=C1Nc1ccc(Cl)cc1 (stereo not drawn)	SNB-19	label 0
COc1c(-c2ccc(O)c(O)c2)oc2c(O)c(O)cc(O)c2c1=O	SNB-19	label 0
O=[N+]([O-])c1ccc(-c2nnc(C34CC5CC(CC(C5)C3)C4)o2)cc1	SNB-19	label 0
COc1cc2oc(-c3ccc4c(c3)OCO4)c(OC)c(=O)c2c(OC)c1O	SNB-19	label 0
CCCCNS(=O)(=O)c1n[nH]c(=O)[nH]c1=O	SNB-19	label 0
CCOP(=O)(OCC)/C(=C\n1c(=S)[nH]c2cc(C)ccc21)C(=O)OC	SNB-19	label 0
COC(=O)/C=C/c1c(CC=C(C)C)ncn1C	SNB-19	label 0
CN(C(=O)C12C3C4C5C3C1(C(=O)C13C6C7C8C6C1C8C73)C5C42)C(C)(C)C (stereo not drawn)	SNB-19	label 0
O=C1CCCC2=C1CC1=C(CCCC1=O)N2c1ccccc1C(=O)O	SNB-19	label 0
CC(C)OCN/C(N)=N\C#N	SNB-19	label 0
CCCCCCCC(CC(=O)NC(CO)C(=O)NC(CO)CC(C)C)OC(=O)CC(CCCCCCC)OC(=O)CC(CCCCCCC)OC1OC(C)C(O)C(OC2OC(C)C(O)C(OC(C)=O)C2O)C1O (stereo not drawn)	SNB-19	label 0
C/C(=N\NC(=O)c1ccncc1)c1ccccc1F	SNB-19	label 0
Cc1ccc(-c2cn3c(nc4ccccc43)c(/C=C/c3ccco3)n2)cc1	SNB-19	label 0
CCCCCCCCCCCCCCCCCCNc1ccn(C2OC(COP(=O)(O)OC3CC(n4cc(F)c(=O)[nH]c4=O)OC3COP(=O)(O)OCC3OC(n4ccc(N)nc4=O)C(O)C3O)C(O)C2O)c(=O)n1 (stereo not drawn)	SNB-19	label 0
COc1ccc(/C=C/c2cc(OC)c(OC)c(OC)c2)cc1OC	SNB-19	label 0
COc1cc2c(c(OC)c1OC)C(=O)[C@H]1OC(=O)N[C@@H]21	SNB-19	label 0
O=[N+]([O-])c1ccc2nc3ccccc3cc2c1	SNB-19	label 0
C[n+]1c2ccccc2c(NC(CS)C(=O)O)c2ccccc21 (stereo not drawn)	SNB-19	label 0
CNC(=O)O/N=C1\N(C)CN(c2ccccc2)C12CCN(CCCC(=O)c1ccc(F)cc1)CC2	SNB-19	label 0
O=C(CC1(O)C(=O)Nc2ccccc21)c1ccc(Cl)cc1Cl (stereo not drawn)	SNB-19	label 0
Cc1ccc(S(=O)(=O)N/N=C2\CCCCC23CCC(=O)NC3)cc1 (stereo not drawn)	SNB-19	label 0
C[C@@H](NC1CCCC[C@@H]1O)c1ccccc1 (stereo partly drawn)	SNB-19	label 0
COc1ccccc1NC(=O)CC(=O)n1nc(C)c(/N=N/c2ccccc2C(=O)O)c1C	SNB-19	label 0
O=C1Nc2cccc(Cl)c2/C1=C\c1c(Cl)nc2sccn12	SNB-19	label 0
Cc1ccc(C(=O)CC(O)(C(F)(F)F)C(F)(F)F)cc1[N+](=O)[O-]	SNB-19	label 0
